Documented Activity across a set of compounds
# Experiment Notes: Prodrug activation assessed as Escherichia coli NR-mediated compound reduction by measuring specific enzyme activity at 100 uM measured every 20 mins by HPLC based UV-Vis method

Compound: O=[N+]([O-])c1ccc(N2Cc3ccccc3CC2CCl)cc1 (stereo not given)
Activity: < 0.01 µmol/min/mg

Compound: O=[N+]([O-])c1ccc(N2Cc3ccccc3CC2CCl)cc1C(F)(F)F (stereo not given)
Activity: 0.106 µmol/min/mg

Compound: O=[N+]([O-])c1ccc(N2Cc3ccccc3CC2CCl)c(C(F)(F)F)c1 (stereo not given)
Activity: 0.166 µmol/min/mg

Compound: O=[N+]([O-])c1ccc(N2Cc3ccccc3CC2CCl)c([N+](=O)[O-])c1 (stereo not given)
Activity: 0.254 µmol/min/mg

Compound: O=[N+]([O-])c1cc(C(F)(F)F)ccc1N1Cc2ccccc2CC1CCl (stereo not given)
Activity: < 0.01 µmol/min/mg
